Numbers sourced from patent US20180161310A1.

# assay_target: Kv7.2/7.3 (KCNQ2/3) (Homo sapiens, UniProt O43525+O43526)
# Construct: expressed in transfected cells; host or cells: CHO
# experimental_details: CHO-Kv7.2/7.3 (KCNQ2/3) 86Rb efflux assay
# Assay type: cell-based
# reported_conditions: 10-point CRC 0.001-30 μM, n=2; fit with maximum activation set at 100% of 70 mM KCl control; read-out: EC50
# Protocol: Compounds were tested at concentrations from 0.001 μM to 30 μM to generate 10-point concentration-response curve (CRC) (n=2). Retigabine and ML213 were included as control activators of Kv7.2/7.3 (KCNQ2/3). Data was normalized to ^86Rb flux elicited by application of extracellular buffer containing 70 mM KCl. Data were fit with “maximum activation” set at 100% of 70 mM KCl control stimulus.
Task for the reader: assign each of the following molecules its reported EC50.

Which EC50 value belongs to `CCCOc1nn(CCC)cc1C(=O)Nc1ccc(C(F)(F)F)c(Cl)c1` ? > 30 µM

Which EC50 value belongs to `CCCOc1nn(CCC)cc1C(=O)Nc1ccccc1` ? > 30 µM

Which EC50 value belongs to `CCCOc1nn(CCC)cc1C(=O)Nc1ccc(C(F)(F)F)c(C)c1` ? > 30 µM

Which EC50 value belongs to `CCCOc1nn(CCC)cc1C(=O)Nc1ccc(F)cc1F` ? > 30 µM

Which EC50 value belongs to `CCCOc1nn(CCC)cc1C(=O)Nc1ccc(C(F)(F)F)c(F)c1` ? > 30 µM

Which EC50 value belongs to `CCCOc1nn(CCC)cc1C(=O)Nc1ccc(C#N)cc1` ? > 30 µM

Which EC50 value belongs to `CCCOc1nn(CCC)cc1C(=O)Nc1ccc(F)c(Cl)c1` ? > 30 µM

Which EC50 value belongs to `CCCOc1nn(CCC)cc1C(=O)Nc1cc(F)ccc1F` ? > 30 µM

Which EC50 value belongs to CCOC(=O)Nc1ccc(NCc2ccc(F)cc2)cc1N [Retigabine, reference compound] ? 0.1 µM

Which EC50 value belongs to Cc1cc(C)c(NC(=O)C2CC3CCC2C3)c(C)c1 (stereo not shown) [ML213, reference compound] ? 0.02 µM
